experimentalSystem: T1, Soluble IGF-1R (sIGF-1R), R&D Systems Cat. # 391-GR/CF (UniProt P08069 31-935, limits assumed)
T1 construct: extracellular domain
procedureSummary: phage ELISA
IGF-1R/IR comparison strictly under 8 means Yes; at 8 or over means No.

(Q) hey, is IGF-1R/IR comparison for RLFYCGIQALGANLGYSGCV [R20α-4-20A12-IR] lower than 8 or not?
(A) No

(Q) Problem: For the binder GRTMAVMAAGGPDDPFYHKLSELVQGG [B6Hα-2-D6-IR] , is IGF-1R/IR comparison under 8?
(A) Yes

(Q) I wonder whether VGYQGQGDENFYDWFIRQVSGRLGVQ [H2CA-4-F5-IGFR] has IGF-1R/IR comparison below 8. Can you tell?
(A) No

(Q) Determine whether this binder shows IGF-1R/IR comparison lower than 8 (ties excluded): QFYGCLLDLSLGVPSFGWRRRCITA [20C-3-A4-IGFR]
(A) Yes

(Q) Identify whether the binder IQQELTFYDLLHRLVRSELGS [20E2B-3-D2-IGFR] records IGF-1R/IR comparison below 8.
(A) No

(Q) Dear colleague, could you confirm whether IGF-1R/IR comparison of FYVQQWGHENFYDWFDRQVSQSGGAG [H2CA-4-F1-IGFR] falls below 8? Thanks.
(A) Yes

(Q) # TODO verify IGF-1R/IR comparison < 8 strictly for this binder: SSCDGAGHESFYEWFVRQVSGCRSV [H2CA-3-C8-IGFR]
(A) Yes

(Q) hey, is IGF-1R/IR comparison for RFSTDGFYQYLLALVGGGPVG [20E2B-1-A11-IGFR] lower than 8 or not?
(A) No

(Q) # check: IGF-1R/IR comparison < 8 for LKDGFYDYFWQRLHLGS [NNRPγ-4-B11-IR]
(A) No

(Q) Criterion: IGF-1R/IR comparison strictly below 8. Is it met by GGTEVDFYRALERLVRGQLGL [20E2B-3-D8-IGFR] ?
(A) No

(Q) Record AICDAGFHEHFYDWFALQVSDCGRQS [H2CA-2-B11-IGFR] : is its IGF-1R/IR comparison strictly below 8?
(A) Yes

(Q) I'd appreciate it if you could check whether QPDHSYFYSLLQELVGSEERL [20E2B-4-F9-IGFR] has IGF-1R/IR comparison smaller than 8.
(A) Yes

(Q) Consider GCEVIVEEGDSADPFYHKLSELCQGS [B6Hα-2-D1-IR] . Does its IGF-1R/IR comparison lie strictly below 8?
(A) Yes
